Source of measurements: patent US20240251785A1

Listed here are compounds together with their documented pIC50.
tested.system: recombinant tick kinin receptor (BMLK3) (Rhipicephalus microplus)
Sequence (Q9NHA4 entry or part of it): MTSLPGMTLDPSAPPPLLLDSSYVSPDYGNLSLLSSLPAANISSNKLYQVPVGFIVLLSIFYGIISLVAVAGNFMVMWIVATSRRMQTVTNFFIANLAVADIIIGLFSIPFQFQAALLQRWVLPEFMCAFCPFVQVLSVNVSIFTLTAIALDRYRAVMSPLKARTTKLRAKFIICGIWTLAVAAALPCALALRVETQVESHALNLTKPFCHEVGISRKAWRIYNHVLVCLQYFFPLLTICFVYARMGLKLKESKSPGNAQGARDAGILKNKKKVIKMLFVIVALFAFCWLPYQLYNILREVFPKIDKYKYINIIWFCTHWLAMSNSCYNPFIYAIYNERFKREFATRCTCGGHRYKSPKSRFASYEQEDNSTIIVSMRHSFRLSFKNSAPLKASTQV
protocol.notes: Dose-response dual-addition calcium fluorescence assay on BMLK3 cells
Format: cell-based
experimental.parameters: Table 5 analogs, second addition Rhimi-K-1 1 μmol L^−1; read-out: BMLK3 antagonist IC50
pIC50: −log10 of the molar value.
quantity.name: pIC50

mol.smiles | value.observed
Cc1ccc(C=C2SC(=S)N(NS(=O)(=O)c3ccc(C)cc3)C2=O)cc1 | 6.29
Cc1ccc(S(=O)(=O)NN2C(=O)C(=Cc3ccc(C(=O)O)cc3)SC2=S)cc1 | 6.93
O=C1C(=Cc2ccccc2)SC(=S)N1NS(=O)(=O)c1ccccc1 | 5.72
Cc1ccc(S(=O)(=O)NN2C(=O)C(=Cc3ccc(F)cc3)SC2=S)cc1 | 6.20
